System: LNCaP prostate tumor cells
experiment: In vitro Alamar Blue cytotoxicity assay of non-cleavable oligopeptide-doxorubicin conjugates
Type: cell-based, human
condition context: FIG. 4 legend, cells incubated 3 days at 37° C., cell line not named in legend (LNCaP or DuPRO in method)
quantity name: pEC50
Give only the number. pEC50 is defined as minus log10 of concentration in molar units.

Ask: Under LNCaP prostate tumor cells: pEC50 value of `COc1cccc2c1C(=O)c1c(O)c3c(c(O)c1C2=O)C[C@@](O)(C(=O)CO)C[C@@H]3O[C@H]1C[C@H](N)[C@H](O)[C@H](C)O1` ?
Result: 6.52

Data provenance is patent US6177404A.
